Test: qHTS Assay for Lipid Storage Modulators (AID 1519)
Settings: Drosophila S3 cells, BODIPY lipid droplet/cell ratio, laser cytometry; measured here: cell count channel max response; cells loaded with oleic acid
Records with an inconclusive call do not appear.
Measured max response, listed per entry.
Please respond with the number in % and leave the unit unwritten.

[
  {
    "SMILES_RECORD": "CN(C)Cc1ccccc1-c1cc(NCc2ccccc2)ncn1",
    "UOM": "%",
    "MEAS_VALUE": 6.7
  },
  {
    "SMILES_RECORD": "O=C(c1ccco1)N1CCC2(CC1)CCN(C(c1ccccc1)c1ccccc1)CC2",
    "UOM": "%",
    "MEAS_VALUE": 7.88
  },
  {
    "SMILES_RECORD": "O=C(c1csnn1)N1CCC2(CCCN(C(c3ccccc3)c3ccccc3)C2)CC1",
    "UOM": "%",
    "MEAS_VALUE": -8.01
  },
  {
    "SMILES_RECORD": "Cc1noc(C)c1-c1nccc(N2CCNCC2)n1",
    "UOM": "%",
    "MEAS_VALUE": 6.93
  }
]

Now for another entry.
Please list max response recorded for the compound `COc1ccc(NC(=O)N2CCC3(CC2)CCN(C(=O)c2cc(C(F)(F)F)cc(C(F)(F)F)c2)CC3)cc1`
3.79

* * *

Test system: CP260
Assay: qHTS profiling for inhibitors of Plasmodium falciparum proliferation (AID 504749); note: nearly all actives have a fitted effect of over 60% in size
Details: P. falciparum in erythrocytes, SYBR Green DNA, 72 h; series mostly up to 12.8 µM
Inconclusive results are not listed. Activity calls are given as the source filed them. Calls follow the shape of the dose curve; as a rule, active = well fitted inhibition curve with a large enough effect; inconclusive = small, poorly fitted or top-dose-only effect; inactive = flat fitted curve, though single readings scatter.
Parameter call: string, one of t (active), f (inactive)

Look over these answered cases.
[
  {
    "COMPOUND": "C[C@@H](CCc1ccccc1)NC[C@H](O)c1ccc(O)c(C(N)=O)c1",
    "SUBJECT_OF_TEST": "CP260",
    "CLASS_ASSIGNMENT": "f"
  },
  {
    "COMPOUND": "CN(C)[C@H]1C(=O)C(C(=O)NCN2CCCC2)=C(O)[C@]2(O)C(=O)C3=C(O)c4c(O)cccc4[C@@](C)(O)[C@H]3C[C@@H]12",
    "SUBJECT_OF_TEST": "CP260",
    "CLASS_ASSIGNMENT": "f"
  },
  {
    "COMPOUND": "C[N+](C)(C)CC(O)CC(=O)O (stereo not drawn)",
    "SUBJECT_OF_TEST": "CP260",
    "CLASS_ASSIGNMENT": "f"
  },
  {
    "COMPOUND": "CO[C@H]1C[C@@H](O[C@@H]2[C@H](C)[C@H](O[C@@H]3O[C@@H](C)C[C@@H](N(C)C)[C@@H]3O)[C@H](C)C[C@]3(CO3)C(=O)[C@H](C)[C@H](O)[C@H](C)[C@H](C)OC(=O)[C@@H]2C)O[C@@H](C)[C@H]1O",
    "SUBJECT_OF_TEST": "CP260",
    "CLASS_ASSIGNMENT": "f"
  },
  {
    "COMPOUND": "NS(=O)(=O)c1cc([C@@]2(O)NC(=O)c3ccccc32)ccc1Cl",
    "SUBJECT_OF_TEST": "CP260",
    "CLASS_ASSIGNMENT": "f"
  }
]

Which outcome was assigned to `NC(=O)c1cc[n+](CC2=C(C(=O)O)N3C(=O)[C@@H](NC(=O)[C@H](c4ccccc4)S(=O)(=O)[O-])[C@@H]3SC2)cc1` in this test?
t

Could you please tell me the result logged for `CC[C@]1(C)CC(=O)NC1=O` in this assay?
f

Dear colleague, could you share the recorded outcome for `CC1(C)O[C@@H]2C[C@H]3[C@H]4C[C@H](F)C5=CC(=O)C=C[C@@]5(C)[C@@H]4[C@H](O)C[C@]3(C)[C@]2(C(=O)CO)O1` when you have a moment?
f
